- system-name: TNF-alpha (Homo sapiens, UniProt P01375 P01375:77-233)
- Sequence (P01375 77-233, one chain of several): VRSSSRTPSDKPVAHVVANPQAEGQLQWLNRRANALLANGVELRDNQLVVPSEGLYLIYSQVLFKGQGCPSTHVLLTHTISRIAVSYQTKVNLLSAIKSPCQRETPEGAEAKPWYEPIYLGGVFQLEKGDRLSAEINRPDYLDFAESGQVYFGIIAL
- test-summary: competition; U937 cells; 2'F version
- condition-parameters: tags: Genzyme or R&D Systems; chain copies: 3 inferred
metric-name: Ki (µM)
Numbers only, in µM.

Solved entries (count: 3):
binder	Ki / µM
TNF 14C 2'F (ssRNA, 2'-F all C and U) RNA: GGGAGCUCAGAAUAAACGCUCAACGGCUUGCAGGUCGCCGAAAUGACCGCACAUUCGACAUGAGGCCCGGAUCCGGC	11.5
TNF 6A 2'F (ssRNA, 2'-F all C and U) RNA: GGGAGCUCAGAAUAAACGCUCAACCACUGGCUAGGAACUCGAGUACUGGGUGGUUCGACAUGAGGCCCGGAUCCGGC	8.16
TNF 16C 2'F (ssRNA, 2'-F all C and U) RNA: GGGAGCUCAGAAUAAACGCUCAACCUGGUGGUCGUGCGGCUGUCGCCUCAAGGUUCGACAUGAGGCCCGGAUCCGGC	9.19

Let's switch to this binder now.
Query: Ki for TNF 23A 2'F (ssRNA, 2'-F all C and U) RNA: GGGAGCUCAGAAUAAACGCUCAACCUCAUCCUCGCACGCCAUCGCCUGAACCGUUCGACAUGAGGCCCGGAUCCGGC ?
Response: 14.7

These measurements were taken from patent US5972599.
